- Tested on: Enterococcus faecalis
- experimental-protocol: Antibacterial activity was determined against gram positive bacteria - Enterococcus faecalis (ATCC 29212). Also: test concentration or dose not given here.
- Assay type: functional
measure-name: Zone diameter (mm)
Could you give me the number in mm? Just the number is fine.

# count of solved cases: 6
smiles-record: COC(=O)c1ccccc1/N=c1\ssnc1Cl
measure-unit: mm
Zone diameter: 16
--
smiles-record: COc1cc(C#N)c(/N=c2\ssnc2Cl)cc1OC
measure-unit: mm
Zone diameter: 10
--
smiles-record: Clc1nss/c1=N\c1ccc2c(c1)OCCO2
measure-unit: mm
Zone diameter: 10
--
smiles-record: COC(=O)c1cc(OC)c(OC)cc1/N=c1\ssnc1Cl
measure-unit: mm
Zone diameter: 14
--
smiles-record: COc1ccc(/N=c2\ssnc2Cl)cc1OC
measure-unit: mm
Zone diameter: 13
--
smiles-record: N#Cc1ccccc1/N=c1\ssnc1Cl
measure-unit: mm
Zone diameter: 11

(Q) Reported Zone diameter, molecule `COc1ccc(/N=c2\ssnc2Cl)cc1` : ____
(A) 14
